Structures can show the parent of a compound that is named as a salt.
MEASUREMENT_KIND: melting point (°C)

{"MOLECULE": "O=S(=O)(C1CCCCC1)n1cc(C2=CCN3CCCC3C2)c2cc(F)ccc21 (stereo not shown) (as salt: hydrochloride)", "RESULT_NUMBER": 263}
{"MOLECULE": "CN1CC=C(c2cn(S(=O)(=O)C3CCCCC3)c3ccc(N)cc23)CC1", "RESULT_NUMBER": 75}
